Exercise: for every item that follows, state its recorded IC50.
Test system: SW480
Experiment: Cytotoxicity against human SW480 cells assessed as reduction in cell viability after 48 hrs by MTS assay
Assay type: functional, cell-based
Settings: SW480, 48 h

Ask: Please give measured IC50 of the following entry: COc1ccc(CCc2cc(OC)c3c(c2)O[C@@H](c2ccc(O)c(OC)c2)[C@H](CO)O3)cc1
Reply: > 40 µM

Ask: Please give measured IC50 of the following entry: CC(C)C1=C(O)C(=O)[C@@]2(C)[C@@H]3CC[C@H]2[C@H]1C(=O)N(C)C3
Reply: > 40 µM

Ask: Please give measured IC50 of the following entry: COc1ccc(CCc2cc(O)c(-c3c(OC)cc([C@@H]4OO[C@H]4CO)cc3OC)c(OC)c2)cc1
Reply: 5.3 µM

Ask: Please give measured IC50 of the following entry: CC(C)[C@H]1[C@@H]2C(=O)O[C@H]1[C@@]1(O)N(C)C[C@H]3CC[C@@H]2[C@]31C
Reply: > 40 µM

Ask: Please give measured IC50 of the following entry: CC(C)[C@@H]1[C@@H]([C@@H]2CC[C@@H]3CN(C)C(=O)[C@@]32C)C(=O)O[C@H]1O
Reply: > 40 µM

Ask: Please give measured IC50 of the following entry: COc1ccc(CCc2cc(OC)c(O[C@H](CO)[C@@H](O)c3ccc(O)c(OC)c3)c(OC)c2)cc1
Reply: > 40 µM

Ask: Please give measured IC50 of the following entry: COc1cc(CCc2ccc(O)cc2)cc(O)c1-c1c(OC)cc([C@@H]2OO[C@H]2CO)cc1OC
Reply: > 40 µM

Ask: Please give measured IC50 of the following entry: CC(C)C1=C(O)C(=O)[C@@]2(C)[C@@H]3CC[C@H]2[C@H]1C(=O)NC3
Reply: > 40 µM

Ask: Please give measured IC50 of the following entry: COC(=O)/C(=C(/C(=O)O)C(C)C)[C@@H]1CC[C@@H]2CN(C)C(=O)[C@@]21C
Reply: > 40 µM

Ask: Please give measured IC50 of the following entry: CC(C)[C@@H]1[C@H]2OC(=O)[C@@H]1[C@@H]1CC[C@@H]3CN(C)[C@H]2[C@@]31C
Reply: > 40 µM

Ask: Please give measured IC50 of the following entry: CC(=O)O[C@H]1C(=O)[C@@]2(C)[C@H]([C@H](OC(=O)c3ccccc3)[C@]3(O)C[C@H](OC(=O)[C@H](O)[C@@H](NC(=O)c4ccccc4)c4ccccc4)C(C)=C1C3(C)C)[C@]1(OC(C)=O)CO[C@@H]1C[C@@H]2O
Reply: < 0.008 µM
